# measurement-protocol: qHTS profiling of the MIPE4 collection as inhibitors of Plasmodium falciparum (DD2) proliferation (Rep 2) (AID 743346)
# experimental-context: P. falciparum Dd2 in erythrocytes, SYBR Green DNA, 72 h; at 28.5 µM unless noted
observable: parasite growth, % of control (lower = inhibition) (%)
Lab book: enter the figure in %, no units written.

>>> measured_number("COc1ccc(C=CC(=O)Nc2ccccc2C(=O)O)cc1OC")
48.9

Moving on to another compound below.
Task: Kindly indicate its recorded parasite growth, % of control (lower = inhibition). Item: Cc1ccc2c(c1)c1c(n2CCc2ccc(C)nc2)CCN(C)C1
Output: 49.2

====

# measurement-protocol: Quantitative High-Throughput drug screen in 47 multiple myeloma cell lines against the NCATS MIPE library collection: L363_DSMZ cell viability assay (AID 1918984); also: nearly all actives have a fitted effect of over 40% in size; also: potency is read from the fitted curve at half-maximal effect
# experimental-context: L363 myeloma viability, CellTiter-Glo ATP luminescence, 48 h
Results filed as inconclusive are left out. Activity calls are given as the source filed them. The call rests on the fitted dose curve; in most records, active means well fitted cell-killing curve with a large enough effect; inconclusive means small, poorly fitted or top-dose-only effect, or effect the other way; inactive means no such curve, though single readings can be large or run the other way.
observable: Potency

>>> result("CO[C@H]1C=CO[C@@]2(C)Oc3c(C)c(O)c4c(O)c(c(C=NN5CCN(C)CC5)c(O)c4c3C2=O)NC(=O)C(C)=CC=C[C@H](C)[C@H](O)[C@@H](C)[C@@H](O)[C@@H](C)[C@H](OC(C)=O)[C@H]1C")
"inactive"
>>> result("CCc1cc(-c2n[nH]c(C)c2-c2ccc3c(c2)OCCO3)c(O)cc1O")
"148 nM (active)"
>>> result("Nc1[nH]nc2nnc(-c3c(-c4ccccc4)nn4ccccc34)cc12")
"2640 nM (active)"
>>> result("COC(=O)Nc1ccc(-c2nc(N3CCOCC3)c3cnn(C4CCN(C(=O)OC)CC4)c3n2)cc1")
"93.5 nM (active)"
>>> result("O=C(c1ccc(F)c(F)c1Nc1ccc(I)cc1F)N1CC(O)([C@H]2CCCCN2)C1")
"1660 nM (active)"
>>> result("c1ccc(CNc2nc(N3CCOc4ccccc43)nc3c2CCCC3)cc1")
"inactive"

Task: Kindly indicate its recorded Potency. Item: Nc1nc(Cl)nc2c1ncn2[C@@H]1O[C@H](CO)[C@@H](O)[C@H]1F
Output: 52.6 nM (active)

Task: Kindly indicate its recorded Potency. Item: O=C(O)c1nc(=O)[nH]c(=O)[nH]1
Output: inactive

Task: Kindly indicate its recorded Potency. Item: COc1cc([C@H]2Oc3cc([C@H]4Oc5cc(O)cc(O)c5C(=O)[C@H]4O)ccc3O[C@H]2CO)ccc1O
Output: inactive

Task: Kindly indicate its recorded Potency. Item: CCCCCOC(=O)Nc1nc(=O)n([C@@H]2O[C@H](C)[C@@H](O)C2O)cc1F (some centres undefined)
Output: inactive

Task: Kindly indicate its recorded Potency. Item: Clc1ccc(COC(Cn2ccnc2)c2ccc(Cl)cc2Cl)c(Cl)c1 (centres undefined)
Output: 20900 nM (active)

Task: Kindly indicate its recorded Potency. Item: CCN1C[C@H](C)n2c(c(O)c3c(=O)n(Cc4ccc(F)c(Cl)c4)nc(C(=O)NC)c32)C1=O
Output: inactive

Task: Kindly indicate its recorded Potency. Item: CS(=O)(=O)c1ccc(C2=C(c3ccccc3)C(=O)OC2)cc1
Output: inactive

Task: Kindly indicate its recorded Potency. Item: COc1ccc2c(c1)c(C1=C(c3c[nH]c4ccccc34)C(=O)NC1=O)cn2CCCN(C)C
Output: 13200 nM (active)

====

# measurement-protocol: Quantitative High-Throughput drug screen in 47 multiple myeloma cell lines against the NCATS MIPE library collection: JIM3_ECACC cell viability assay (AID 1918963; also: nearly all actives have a fitted effect of over 35% in size)
# experimental-context: JIM3 myeloma viability, CellTiter-Glo ATP, 48 h; series mostly up to 45.8 µM
Inconclusive results are not listed. Calls of active or inactive are those of the source. Calls come from the whole dose curve; as a rule, active = well fitted cell-killing curve with a large enough effect; inconclusive = small, poorly fitted or top-dose-only effect; inactive = no such curve, though single readings can be large or run the other way.
Just give me one of these, please: active, inactive

As a guide, the following entries are already answered.
>>> category_label("O=C(NCCCCN1CCOCC1)c1cc2ccccc2o1")
"inactive"
>>> category_label("CS(=O)(=O)c1ccc(C2=C(c3ccccc3)C(=O)OC2)cc1")
"inactive"
>>> category_label("CC(C)Oc1cc(Nc2nc(N[C@@H](C)c3ccc(F)cn3)ncc2Cl)[nH]n1")
"active"
>>> category_label("Cc1cc2c(cc1C1(c3ccc(C(=O)O)cn3)CC1)C(C)(C)CCC2(C)C")
"active"

Task: What outcome does the record of this test show for CNC1CCC(N(Cc2cccc(-c3ccncc3)c2)C(=O)c2sc3ccccc3c2Cl)CC1 (centres undefined) ?
Output: active

Task: What outcome does the record of this test show for CN(C)c1nc(Cc2ccc(NC(=O)c3ccc(C(F)(F)F)cc3)cc2)nc(N(C)C)c1CC(=O)O ?
Output: inactive

Task: What outcome does the record of this test show for OC[C@H]1O[C@@H](Oc2ccc(O)cc2)[C@H](O)[C@@H](O)[C@H]1O ?
Output: active

Task: What outcome does the record of this test show for O=C1NC(=O)C(=Cc2ccc(-c3ccc(F)cc3O)o2)S1 ?
Output: inactive

====

# System: NIH3T3
# measurement-protocol: Cytotoxic Profiling of Annotated Libraries Using Quantitative High-Throughput Screening (AID 1296008); also: nearly all actives have a fitted effect of over 60% in size
# experimental-context: Five cell lines viability, CellTiter-Glo ATP luminescence, 48-72 h
Results filed as inconclusive are left out. The source made the active and inactive calls. Calls follow the shape of the dose curve; as a rule, active = well fitted inhibition curve with a large enough effect; inconclusive = small, poorly fitted or top-dose-only effect; inactive = flat fitted curve, though single readings scatter.
Just give me one of these, please: active, inactive

>>> category_label("COc1cc(CNC(=O)CCCCC=CC(C)C)ccc1O")
"active"
>>> category_label("CC(=O)N1CCN(c2ccc(OCc3nn(C)c(C)c3-c3cccc4c(CCCOc5cc(C)c(Cl)c(C)c5)c(C(=O)O)n(Cc5cccnc5)c34)cc2)CC1")
"inactive"
>>> category_label("COc1nc(C)cnc1NS(=O)(=O)c1cccnc1-c1ccc(-c2nnco2)cc1")
"inactive"
>>> category_label("COC(=O)N1CCN(Cc2cccc(NC(=O)Nc3ccc(C)nc3)c2F)CC1")
"inactive"
>>> category_label("Cc1cc(CS(=O)(=O)c2ccccc2)cc(OCc2ccc(CN3CCC[C@H]3CO)cc2)c1")
"active"

Task: What outcome does the record of this test show for CN[C@@H]1[C@@H](O)[C@@H](O[C@@H]2[C@@H](O)[C@H](O[C@H]3O[C@H](CN)[C@@H](O)[C@H](O)[C@@H]3O)[C@@H](N)C[C@@H]2NC(=O)[C@@H](O)CN)OC[C@]1(C)O ?
Output: inactive

Task: What outcome does the record of this test show for COc1cccc(OC)c1-c1cc(C(=O)NC2(C(=O)O)C3CC4CC(C3)CC2C4)nn1-c1ccnc2cc(Cl)ccc12 (stereo not given) ?
Output: inactive

Task: What outcome does the record of this test show for CCC[C@@H](NC(=O)[C@@H]1[C@H]2CCC[C@@H]2CN1C(=O)[C@@H](NC(=O)[C@@H](NC(=O)c1cnccn1)C1CCCCC1)C(C)(C)C)C(=O)C(=O)NC1CC1 ?
Output: inactive

Task: What outcome does the record of this test show for O=C(NC[C@H](O)CO)c1ccncc1Nc1ccc(I)cc1F ?
Output: active

Task: What outcome does the record of this test show for c1ccc(-c2oc3ncnc(NC[C@@H]4CCCO4)c3c2-c2ccccc2)cc1 ?
Output: active

====

# measurement-protocol: High-throughput drug toxicity screening in the BPDCN cell line Cal-1 (AID 1224825);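 also: cells exposed to compounds for 48 h; 100% = DMSO and 0% = bortezomib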
# experimental-context: Cal-1 BPDCN cell viability, qHTS; at 45.8 µM (top of the series) unless noted
observable: viability (% of control) (%)
Lab book: enter the figure in %, no units written.

>>> measured_number("Cc1ccc2c(=O)c3cccc(CC(=O)O)c3oc2c1C")
50.1
>>> measured_number("Nc1ccn([C@@H]2O[C@H](CO)[C@@H](O)[C@H]2O)c(=O)n1")
11.3

Moving on to another compound below.
Task: Kindly indicate its recorded viability (% of control). Item: O=C(O)CCNc1cc(N2CCc3ccccc3CC2)nc(-c2ccccn2)n1
Output: 91.6

====

# measurement-protocol: qHTS of pediatric cancer cell lines to identify multiple opportunities for drug repurposing: Primary screen for U-2 OS cells (AID 1347096); also: nearly all actives have a fitted effect of over 50% in size
# experimental-context: U-2 OS viability, CellTiter-Glo luminescence, 48 h; series mostly up to 46 µM
Records with an inconclusive call do not appear. Activity calls are given as the source filed them. Calls come from the whole dose curve; as a rule, active = well fitted cell-killing curve with a large enough effect; inconclusive = small, poorly fitted or top-dose-only effect; inactive = flat fitted curve, though single readings scatter.
Just give me one of these, please: label 1 (active), label 0 (inactive)

As a guide, the following entries are already answered.
>>> category_label("C[C@]12CCC3=C4CCC(=O)C=C4CC[C@@H]3[C@H]1CC[C@@]2(O)CC#N")
"label 0"
>>> category_label("Cc1ccc(S(=O)(=O)OCC(=O)Nc2ccc(C(=O)O)c(O)c2)cc1")
"label 0"
>>> category_label("CCCCCOC(=O)Nc1nc(=O)n([C@@H]2O[C@H](C)[C@@H](O)C2O)cc1F (some centres undefined)")
"label 0"
>>> category_label("CC(=O)OCC(=O)[C@@]12OC(C)(C)O[C@H]1C[C@H]1[C@@H]3C[C@H](F)C4=CC(=O)C=C[C@]4(C)[C@@]3(F)[C@@H](O)C[C@@]12C")
"label 0"
>>> category_label("CC(C)N(CCCNC(=O)Nc1ccc(C(C)(C)C)cc1)C[C@H]1O[C@@H](n2cc(Br)c3c(N)ncnc32)[C@H](O)[C@H]1O")
"label 0"
>>> category_label("C[C@]12C=CC(=O)C=C1CC[C@@H]1[C@@H]2[C@@H](O)C[C@@]2(C)[C@@H]1CC[C@]2(O)C(=O)CO")
"label 0"
>>> category_label("CNC(=O)[C@H](Cc1ccccc1)NC(=O)[C@H](CC(C)C)[C@H](CSc1cccs1)C(=O)NO")
"label 0"
>>> category_label("O=C(O)Cc1cccc(OCCCN(Cc2cccc(C(F)(F)F)c2Cl)CC(c2ccccc2)c2ccccc2)c1")
"label 0"

# input for lookup
Task: What outcome does the record of this test show for CO[C@H]1/C=C\O[C@@]2(C)Oc3c(C)c(O)c4c(O)c(c(C=NN5CCN(C6CCCC6)CC5)c(O)c4c3C2=O)NC(=O)C(C)=CC=C[C@H](C)[C@H](O)[C@@H](C)[C@@H](O)[C@@H](C)[C@H](OC(C)=O)[C@H]1C ?
Output: label 1
